Provenance of the data: patent US20230148417A1

The compounds listed here are annotated with their Vd/F.
# method-notes: Pharmacokinetic study in nude mice, intragastric administration
# Type: in vivo
# condition-details: female, mouse, po; Balb/c nude mice, i.g., 100 mg/kg, plasma; read-out: Apparent volume of distribution Vz/F
value-kind: Vd/F (L/kg)

compound	value-kind	value-unit	measured-result
CC(C)NC[C@@H](C(=O)N1[C@@H]2CC[C@H]1CN(c1ncnc3c1[C@H](C)C[C@H]3O)C2)c1ccc(Cl)cc1 [Example 4]	Vd/F	L/kg	13.2
CC(C)NC[C@@H](C(=O)N1C2CCC1CN(c1ncnc3c1C(C)(C)C(=O)N3)C2)c1ccc(Cl)cc1 [Example 2]	Vd/F	L/kg	16.2
